test system: MOLT-4; test: NCI tumour cell line growth inhibition, 48 h
The source made the active and inactive calls. Cut-off read from the data, not from the text of the source: active = GI50 up to about 1.1 µM and inactive = higher.
Hello, when you answer, please use one of the following outcomes: active, inactive

Q) What is the recorded call for this compound in the test? Cc1ccccc1NC(=O)C(=O)C(c1cnc2ccc([N+](=O)[O-])cc2n1)[N+](=O)[O-] (stereo unspecified)
A) inactive

Q) What is the recorded call for this compound in the test? `CCCNC1=C2C[C@@H](C)C[C@@H](OC)[C@@H](OC(=O)CCCN)[C@H](C)/C=C(\C)[C@@H](OC(N)=O)[C@H](OC)/C=C\C=C(/C)C(=O)NC(=CC1=O)C2=O`
A) inactive

Q) What is the recorded call for this compound in the test? `COC(=O)c1cc(=O)n(-c2ccc3nn(C)nc3c2)cc1C(=O)OC`
A) inactive

Q) What is the recorded call for this compound in the test? `OCCO[P+]1(OCCO)n2c3ccc2C(c2ccccc2)=C2C=CC(=N2)C(c2ccccc2)=c2ccc(n21)=C(c1ccccc1)C1=NC(=C3c2ccccc2)C=C1`
A) active

Q) What is the recorded call for this compound in the test? Cc1ccc([N+](=O)[O-])cc1S(=O)(=O)Nc1ccc(C2=NN(S(=O)(=O)c3cc([N+](=O)[O-])ccc3C)C(c3ccccc3)C2)cc1 (stereo unspecified)
A) inactive

Q) What is the recorded call for this compound in the test? `O=C(C#Cc1ccccc1)N1CCCCC1`
A) inactive
